- Assay overview: aggregation and purification amounts of deglycosylated antibodies, before and after φ
- Assay type: physicochemical
- Test conditions: based on 100 ml culture
Recorded metric: Fraction1, After φ (mg)
One number for each entry, in mg.

**Query** Answer with the recorded Fraction1, After φ of Deglyco-C4: deglycosylated clone 1 IgG; light chain CDR1 TGSSSNIGAVVVT (SEQ ID NO: 5) (antibody, V domains shown) VH: EVQLVESGGGLVQPGGSLRLSCAVSGFTFSGYDMSWIRQAPGKGLEWVAGIYPDGGNTYYADSVKGRFTISRDDSKNTFYLQMNSLRAEDTAVYYCARGATWWVLGPFDYWGQGTLVTVSS VL: DIQLTQSPSSLSASVGDRVTITCTGSSSNIGAVVVTWYQQKPGKAPKLLIYADSHRPSGVPSRFSGSGSGTDFTLTISSLQPEDFATYYCGAWDDSLSGYVFGQGTKVEIKR only.
**Result** 0.015
